- TEST_PROTOCOL: Pharmacokinetic evaluation in blood by LC-MS/MS
- Type: in vivo, female NOD/SCID mice
- CONDITION_CONTEXT: female, NOD/SCID, mouse, po, 100 umol/kg; per os, blood
- Protocol: The in vitro efficacy of SAP was followed by its pharmacokinetic evaluation in mice. Initially, the PK parameters of SAP were compared in an oral versus IP administration (Figure 3). Figure 3 Pharmacokinetic evaluation of SAP Female NOD/SCID mice (n = 6) were dosed per os or IP with SAP (100 μmol/Kg) and blood samples were collected at selected time points. Drug levels of SAP were monitored by LC-MS/MS. The AUC for each treatment was calculated as a measure of drug exposure over time. […]
PROPERTY_MEASURED: Tmax (h)
One number for each entry, in h.

// Tmax lookup, compound = Cc1[nH]c(/C=C2\C(=O)Nc3ccc(F)cc32)c(C)c1C(=O)NCCN1CCNCC1 , result: 1
